Catalogue of molecules with associated CC50
assay: in vitro; conditions: dog
Where a name gives a salt, the structure may show the parent alone.
Quantity: CC50

[
  {
    "Molecule": "CN[C@@H](C)[C@H](O)c1ccccc1 [Ephedrine HCl]",
    "Result": "> 10000 µg/mL"
  },
  {
    "Molecule": "C=C[C@H]1C[N@@]2CC[C@H]1C[C@@H]2[C@@H](O)c1ccnc2ccc(OC)cc12 [Quinidine Sulphate, Quinidine sulphate]",
    "Result": "> 10000 µg/mL"
  },
  {
    "Molecule": "CC(=O)N[C@H]1[C@H]([C@H](O)[C@H](O)CO)OC(C(=O)O)=C[C@@H]1N=C(N)N",
    "Result": "> 10000 µg/mL"
  },
  {
    "Molecule": "COc1cc2c(c(OC)c1OC)-c1ccc(OC)c(=O)cc1[C@@H](NC(C)=O)CC2",
    "Result": "2380 µg/mL"
  }
]

----------
system: highly pathogenic avian influenza A/chicken/Egypt/N12640A/2016 (H5N1); assay: microbe, parasite or virus in culture; assay type: cell-based, influenza A/H5N1 virus; settings: Influenza A virus, H5N1, MDCK, 72 h
Counter-ions that a name gives are not always drawn.
Quantity: IC50 (µg/mL)

[
  {
    "Molecule": "CC(=O)N[C@H]1[C@H]([C@H](O)[C@H](O)CO)OC(C(=O)O)=C[C@@H]1N=C(N)N [Zanamivir]",
    "Quantity": "IC50",
    "Result": 0.358
  },
  {
    "Molecule": "CC[C@@H]1C(=O)OC[C@@H]1Cc1cncn1C [Pilocarpine HCl]",
    "Quantity": "IC50",
    "Result": 0.21
  },
  {
    "Molecule": "Cn1c(=O)c2c(ncn2C)n(C)c1=O [Caffeine]",
    "Quantity": "IC50",
    "Result": 85.7
  },
  {
    "Molecule": "CN1C2CC(OC(=O)C(CO)c3ccccc3)CC1C1OC12 (single isomer, unassigned; (-)) [(-)Scopolamine HCl]",
    "Quantity": "IC50",
    "Result": 360
  },
  {
    "Molecule": "CN1C2CCC1CC(OC(=O)C(CO)c1ccccc1)C2 (stereo not drawn) [Atropine sulphate]",
    "Quantity": "IC50",
    "Result": 2.26
  },
  {
    "Molecule": "CN[C@@H](C)[C@H](O)c1ccccc1 [Ephedrine HCl]",
    "Quantity": "IC50",
    "Result": 186
  }
]

----------
assay: in vitro; conditions: dog
Counter-ions that a name gives are not always drawn.
Catalogue of compounds with associated CC50
Quantity: CC50 (µg/mL)

[
  {
    "Compound": "C[n+]1cccc(C(=O)[O-])c1 [Trigonelline HCl]",
    "Readout relation": ">",
    "Result": 10000
  },
  {
    "Compound": "COc1ccc(Cc2nccc3cc(OC)c(OC)cc23)cc1OC [Papaverine HCl]",
    "Readout relation": "=",
    "Result": 274
  },
  {
    "Compound": "C=C[C@H]1C[N@@]2CC[C@H]1C[C@H]2[C@H](O)c1ccnc2ccc(OC)cc12 [Quinine sulphate]",
    "Readout relation": ">",
    "Result": 10000
  },
  {
    "Compound": "CC[C@@H]1C(=O)OC[C@@H]1Cc1cncn1C [Pilocarpine HCl]",
    "Readout relation": "=",
    "Result": 3320
  },
  {
    "Compound": "Cn1c(=O)c2c(ncn2C)n(C)c1=O [Caffeine]",
    "Readout relation": ">",
    "Result": 10000
  }
]
